Reported Plant response rating, Morningglory by item:
System: morningglory (Ipomoea coccinea)
protocol.notes: Test D pre-/postemergence plant response
Format: in vivo
condition.label: Preemergence; 16 g ai/ha; scale 0 to 100 (0 no effect, 100 complete control)
// keep it numeric: no unit symbol after the value

These recorded examples may help you get a feel for the data.
chemical.string: FC(F)(Cl)c1cc(-c2ccccc2Oc2ncc(Cl)cn2)no1
numeric.result: 10
--
chemical.string: N#Cc1cccc(Oc2ncc(Cl)cn2)c1-c1cc(C(F)F)on1
numeric.result: 0
--
chemical.string: Clc1cnc(Oc2ccccc2-c2cc(C3CC3)on2)nc1
numeric.result: 0
--
chemical.string: Cc1cc(-c2c(F)cccc2Oc2ncc(Cl)cn2)on1
numeric.result: 0
--
chemical.string: Fc1ccc(Oc2ncc(Cl)cn2)c(-c2cc(C(F)F)on2)c1F
numeric.result: 20
--
chemical.string: FC(F)c1cc(-c2c(Cl)cccc2Oc2ncc(Cl)cn2)on1
numeric.result: 0

Q: Could you share which Plant response rating, Morningglory value was measured for "COc1cccc(Oc2ncc(Cl)cn2)c1-c1cc(C(F)(F)F)no1" ?
Ans: 5
